Every entry's value here was drawn from patent US12559497B2.

# Method Summary: In vivo pharmacokinetics after a single dose, monkey
# Assay Context: male, plasma; Cynomolgus monkey, 1 mg/kg IV single dose; read-out: Vss
Measured Metric: Vd (L/kg)

smiles_text=CC(=O)N1CCn2c(C3CCOCC3)nc(-c3cccc4cc(-c5cnc(C)s5)ncc34)c2C1 measured_metric=Vd recorded_measurement=2.28

---

# Method Summary: Metabolic stability in human liver microsomes
# Type: in vitro ADME
# Assay Context: pH 7.4, 0.5 mg/mL microsomes, NADPH, 45 minutes, 37° C., read-out: Half-life in liver microsomes (t1/2)
Each entry below carries its reported half-life at 1 μM.
Measured Metric: half-life at 1 μM (h)

compound=CC(=O)N1CCn2c(C3CCOCC3)nc(-c3cccc4cc(-c5cnc(C)s5)ncc34)c2C1 recorded_measurement=5.17
compound="CNC(=O)c1ccc(-c2cc3cccc(-c4nc(C5CCOCC5)n5c4CN(C(=O)NC)CC5)c3cn2)cn1 [Compound 8, reference compound]" recorded_measurement=7.7
compound=CNC(=O)c1ccc(-c2cc3cccc(-c4nc(C5CCOCC5)n5c4CN(C(C)=O)CC5)c3cn2)cn1 recorded_measurement=4.82
